Molecular target: T1, recombinant human activated Factor VII (FVIIa) (human, UniProt P08709 61-212; P08709 213-466, Gla domain: ten glutamate residues may be gamma-carboxylated)
T1 construct: two-chain form after cleavage between Arg152 and Ile153; light chain (Gla, EGF domains) and heavy chain (protease domain) tethered by a disulfide bond; also called rFVIIa; human FVIIa
T1 sequence 1: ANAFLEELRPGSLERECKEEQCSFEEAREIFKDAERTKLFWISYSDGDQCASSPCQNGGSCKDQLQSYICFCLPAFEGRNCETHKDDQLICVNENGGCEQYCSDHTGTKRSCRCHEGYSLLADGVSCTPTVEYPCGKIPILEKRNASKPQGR
T1 sequence 2: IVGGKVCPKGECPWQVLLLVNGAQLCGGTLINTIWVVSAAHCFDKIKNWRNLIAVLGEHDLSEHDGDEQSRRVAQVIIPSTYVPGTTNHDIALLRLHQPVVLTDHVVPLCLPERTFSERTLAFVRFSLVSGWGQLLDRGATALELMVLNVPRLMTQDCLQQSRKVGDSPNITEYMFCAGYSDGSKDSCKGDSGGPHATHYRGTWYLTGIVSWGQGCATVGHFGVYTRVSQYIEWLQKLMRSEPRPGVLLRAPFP
Test: Bio-Layer Interferometry (Fortebio), antibody on anti-human tips, FVIIa 25-200 nM

BINDER	UNITS SYMBOL	Kd
mAb0123 (antibody, human IgG4 S228P, kappa, V domains shown, humanized 11F2 variant, first round) VH: DVQLQESGPGLVEPSQTLSLTCTVSGYSITSDSAWSWIRQFPGKKLEWMGYIQYSGSTNYNPSLKSRVTISRDTSKNQFSLKLSSVTAEDTAVYYCARSVNYYGNSFAVGYWGQGTSVTVSS VL: EIVLTQSPATLSLSPGERATLSCRASQGISSYLHWYQQKPGEAPRLLIKYTSQPATGIPARFSGSGSGTDFTLTISSLEPEDVGVYYCQNGHSFPLTFGAGTKLELKR	nM	5.8
mAb0110 (antibody, human IgG4 S228P, kappa, V domains shown, humanized 11F2 variant, first round) VH: DVQLQESGPGLVKPSQTLSLTCTVSGYSISSDSAWSWIRQPPGKGLEWIGYIQYSGSTNYNPSLKSRVTISRDTSKNQFSLKLSSVTAADTAVYYCARSVNYYGNSFWVDPWGQGTLVTVSS VL: DIVMTQSPATLSVTAGDRVSLSCRASQGISDYLHWYQQKSHESPRLLIKYTSQPVSGIPSRFSGSGSGSEFTLSINSVEPEDVGVYYCQNGHSFPLTFGAGTKLELKR	nM	42000
mAb0117 (antibody, human IgG4 S228P, kappa, V domains shown, humanized 11F2 variant, first round) VH: DVQLQESGPGLVEPSQTLSLTCTVSGYSITSDSAWSWIRQFPGKGLEWMGYIQYSGSTNYNPSLKSRVTISRDTSKNQFSLKLSSVTAEDTAVYYCARSVNYYGNSFAVGYWGQGTSVTVSS VL: EIVLTQSPATLSLSPGERATLSCRASQGISDYLHWYQQKPGEAPRLLIKYTSQPATGIPARFSGSGSGTDFTLTISSLEPEDVGVYYCQNGHSFPLTFGAGTKLELKR	nM	1.4
mAb0121 (antibody, human IgG4 S228P, kappa, V domains shown, humanized 11F2 variant, first round) VH: DVQLQESGPGLVEPSQTLSLTCTVSGYSITSDSAWSWIRQFPGKKLEWMGYIQYSGSTNYNPSLKSRVTISRDTSKNQFSLKLSSVTAEDTAVYYCARSVNYYGNSFAVGPWGQGTSVTVSS VL: EIVLTQSPATLSLSPGERATLSCRASQGISDYLHWYQQKPGEAPRLLIKYTSQPATGIPARFSGSGSGTDFTLTISSLEPEDVGVYYCQNGHSFPLTFGAGTKLELKR	nM	2
